assay: qHTS assay for small molecule activators of the heat shock response signaling pathway - cell viability counter screen (AID 743209); settings: HSE-bla HeLa viability, CellTiter-Glo luminescence, 5 h; series mostly up to 62.6 µM; also: nearly all actives have a fitted effect of over 50% in size; also: potency is read from the fitted curve at half-maximal effect
Records with an inconclusive call do not appear. Active and inactive are the calls of the source. Calls follow the shape of the dose curve; as a rule, active = well fitted cell-killing curve with a large enough effect in the repeat runs; inconclusive = weak or mixed curves, or effect the other way; inactive = no such curve, though single readings can be large or run the other way.
OBSERVABLE: Potency

>>> meas_value("CCCOc1sc(C(=O)N2CCC(c3cc(CN)ccc3F)CC2)c(C)c1Br")
"40 µM (active)"
>>> meas_value("CN1[C@@H]2CC[C@@H]1CC(OC(=O)C(CO)c1ccccc1)C2 (some centres undefined)")
"inactive"
>>> meas_value("O=C1OC(OC(=O)c2cccnc2Nc2cccc(C(F)(F)F)c2)c2ccccc21 (centres undefined)")
"inactive"
>>> meas_value("CCCCCCCCCCCCN(CCO)CCO")
"54.7 µM (active)"
>>> meas_value("S=C(SSSSSSC(=S)N1CCCCC1)N1CCCCC1")
"0.0763 µM (active)"
>>> meas_value("CCCCCCCCCCCC(=O)N(CC)CC")
"inactive"
>>> meas_value("O=Cc1ccc(F)cc1")
"inactive"
>>> meas_value("[O]=[Zr]")
"inactive"
>>> meas_value("O=C(O)Cc1ccc(OCCNC[C@H](O)c2ccccc2)cc1")
"inactive"
>>> meas_value("C[n+]1c2cc(N)ccc2cc2ccc(N)cc21 (tested in a mixture with another compound)")
"29.8 µM (active)"
>>> meas_value("COc1ccc(-n2nc(CCC(=O)N(C)O)cc2-c2ccc(Cl)cc2)cc1")
"inactive"
>>> meas_value("C/C=C/C(=O)Oc1c(CCCCCC(C)C)cc([N+](=O)[O-])cc1[N+](=O)[O-]")
"24.5 µM (active)"
>>> meas_value("CCCCNc1c(C(=O)OCC)c(C)nc2c1cnn2CC")
"inactive"
>>> meas_value("CCN=C1C=CC(=C(c2ccc(N(CC)CC)cc2)c2ccc(N(CC)CC)cc2)c2ccccc21")
"21.7 µM (active)"
>>> meas_value("CC(C)(C)c1cc(/C=C2\\SC(=N)NC2=O)cc(C(C)(C)C)c1O")
"43.6 µM (active)"
>>> meas_value("C=CC(=O)OCCOCC(CC)(COCCOC(=O)C=C)COCCOC(=O)C=C")
"18.1 µM (active)"
>>> meas_value("CCCN(CCc1cccs1)[C@H]1CCc2c(O)cccc2C1")
"inactive"
>>> meas_value("CC(C)(C)CC(C)(C)c1ccccc1O")
"55.2 µM (active)"
>>> meas_value("CN(C)CCCN1c2ccccc2Sc2ccc(C(F)(F)F)cc21")
"inactive"
>>> meas_value("CCOC(=O)N1CCC(=C2c3ccc(Cl)cc3CCc3cccnc32)CC1")
"inactive"
>>> meas_value("CNC(=S)NN")
"24.5 µM (active)"
>>> meas_value("Nc1ccc2cc3ccc(N)cc3nc2c1")
"43.6 µM (active)"
>>> meas_value("CN(C)CCCN1c2ccccc2CCc2ccccc21")
"inactive"
>>> meas_value("COCC(=O)O[C@]1(CCN(C)CCCc2nc3ccccc3[nH]2)CCc2cc(F)ccc2[C@@H]1C(C)C")
"inactive"

====

molecular target: Cytochrome P450 2D6 (Homo sapiens) (UniProt P10635); assay: Cytochrome P450 Family 2 Subfamily D Member 6 (CYP2D6) small molecule antagonists: luciferase reporter qHTS assay (AID 1671196); details: P450-Glo CYP2D6 enzyme assay, luciferin luminescence, 1 h; series mostly up to 115 µM; also: nearly all actives have a fitted effect of over 50% in size
Sequence (P10635 whole entry, looked up): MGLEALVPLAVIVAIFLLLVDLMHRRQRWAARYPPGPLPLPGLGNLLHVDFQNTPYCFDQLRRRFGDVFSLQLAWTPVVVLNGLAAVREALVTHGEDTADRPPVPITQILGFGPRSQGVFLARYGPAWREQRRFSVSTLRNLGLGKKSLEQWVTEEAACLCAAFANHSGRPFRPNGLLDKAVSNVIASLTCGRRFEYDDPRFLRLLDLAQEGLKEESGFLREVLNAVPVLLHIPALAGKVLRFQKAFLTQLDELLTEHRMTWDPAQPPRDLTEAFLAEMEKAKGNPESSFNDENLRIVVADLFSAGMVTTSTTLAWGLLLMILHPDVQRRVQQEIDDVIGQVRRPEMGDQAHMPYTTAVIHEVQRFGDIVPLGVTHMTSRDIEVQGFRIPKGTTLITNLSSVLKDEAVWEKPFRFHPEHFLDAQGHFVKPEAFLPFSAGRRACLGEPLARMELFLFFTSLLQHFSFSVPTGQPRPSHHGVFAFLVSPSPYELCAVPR
Inconclusive results are not listed. Active and inactive are the calls of the source. Calls follow the shape of the dose curve; as a rule, active = well fitted inhibition curve with a large enough effect in the repeat runs; inconclusive = weak or mixed curves; inactive = no such curve, though single readings can be large or run the other way.
Classes used: active, inactive

>>> label_value("O=C(O)Cc1ccc(OCCNC[C@H](O)c2ccccc2)cc1")
"inactive"
>>> label_value("Cc1cccc(Br)c1")
"inactive"
>>> label_value("O=CC1CC1")
"inactive"
>>> label_value("CN(C)c1ccc(N=NS(=O)(=O)O)cc1")
"active"
>>> label_value("COc1cccc(CCc2ccccc2OCC(CN(C)C)OC(=O)CCC(=O)O)c1 (stereo unspecified)")
"active"
>>> label_value("CCN(CC)c1ccc(N)cc1")
"active"
>>> label_value("CCCC(=O)OCC(COC(=O)CCC)OC(=O)CCC")
"inactive"
>>> label_value("CC(=O)C=O")
"inactive"
>>> label_value("CC(=O)O[C@@H]1C[C@@H]2CC[C@@]1(C)C2(C)C")
"inactive"
>>> label_value("CC1CCCNC1 (stereo unspecified)")
"active"
>>> label_value("O=C1OC(OC(=O)c2cccnc2Nc2cccc(C(F)(F)F)c2)c2ccccc21 (stereo unspecified)")
"inactive"
>>> label_value("O=c1cccc[nH]1")
"inactive"
>>> label_value("CCCCCCCCCCCC(=O)N(CC)CC")
"inactive"
>>> label_value("COc1ccc(-n2nc(CCC(=O)N(C)O)cc2-c2ccc(Cl)cc2)cc1")
"active"
>>> label_value("CCOC(OCC)C(=O)c1ccccc1")
"inactive"
>>> label_value("CCCCCCCC(=O)OCC")
"inactive"
>>> label_value("CCCN(CCc1cccs1)[C@H]1CCc2c(O)cccc2C1")
"active"
>>> label_value("CC(C)(C)C1=CC(=O)C=C(C(C)(C)C)C1=O")
"inactive"
>>> label_value("CC(C)=CCCC(C)CCOC(=O)C(C)C (stereo unspecified)")
"inactive"
>>> label_value("C=CC(C)(CCC=C(C)C)OC(=O)/C=C/c1ccccc1 (stereo unspecified)")
"inactive"
>>> label_value("CN(Cc1cc(Br)cc(Br)c1N)C1CCCCC1")
"active"
>>> label_value("CCCC(O)C(O)CO (stereo unspecified)")
"inactive"
>>> label_value("CCCCCCCOC(=O)c1ccccc1C(=O)OCCCCCCC")
"inactive"
>>> label_value("O=C1NC2CCCCN2C12CCN(CCCN1c3ccccc3CCc3ccc(Cl)cc31)CC2 (stereo unspecified)")
"active"
>>> label_value("CCc1ccc(C)nc1")
"inactive"
>>> label_value("COc1cccc(OC)c1O")
"active"
>>> label_value("CC=O")
"active"
>>> label_value("Cc1occc1SSc1ccoc1C")
"inactive"
>>> label_value("COc1cc(C=C2CCC/C(=C\\c3ccc(O)c(OC)c3)C2=O)ccc1O")
"inactive"
>>> label_value("CCCCCCOc1ccc(O)cc1")
"active"
>>> label_value("CC1CNCC(C)O1 (stereo unspecified)")
"inactive"
>>> label_value("Cc1cc(Nc2ccc(O)cc2)ccc1N")
"active"
>>> label_value("COc1ccc(C#N)cc1")
"inactive"
>>> label_value("CCCCCCCC/C=C\\CCCCCCCC(=O)OCCOC(=O)CCCCCCC/C=C\\CCCCCCCC")
"active"
>>> label_value("CC(C)=CCCC(C)O (stereo unspecified)")
"inactive"
>>> label_value("CCc1c(C(=O)O)c(=O)cnn1-c1ccc(Cl)cc1")
"inactive"
>>> label_value("OCCCCl")
"inactive"
>>> label_value("c1ccc(Nc2cccc3ccccc23)cc1")
"active"
>>> label_value("CC(O)C#CC(C)O (stereo unspecified)")
"active"
>>> label_value("CCCCNc1c(C(=O)OCC)c(C)nc2c1cnn2CC")
"inactive"
>>> label_value("CCCCOCC")
"inactive"
>>> label_value("CCOB(OCC)OCC")
"inactive"
>>> label_value("CCc1cccc(C)c1")
"inactive"
>>> label_value("CC1(C)COCN1")
"inactive"
>>> label_value("C/C=C/C(=O)Oc1c(CCCCCC(C)C)cc([N+](=O)[O-])cc1[N+](=O)[O-]")
"inactive"
>>> label_value("Cc1cccc(C)n1")
"inactive"
>>> label_value("CCCCCCCCC(C)=O")
"inactive"
>>> label_value("Brc1ccccc1-c1ccccc1")
"active"
>>> label_value("CC(=O)Oc1ccc(C2(c3ccc(OC(C)=O)cc3)C(=O)Nc3ccccc32)cc1")
"inactive"
>>> label_value("C=CC(=O)OCCN(CC)CC")
"inactive"
>>> label_value("CC(C)OC(=O)c1cc(C(=O)OC(C)C)cc([N+](=O)[O-])c1")
"active"
>>> label_value("CC(C)c1cccc(C(C)C)c1N1C(=O)c2ccc(O)cc2C1=O")
"active"
>>> label_value("CC(=O)OC1CCCCC1")
"inactive"
>>> label_value("CCCCCCCCCCc1ccccc1")
"inactive"
>>> label_value("COc1nccnc1CC(C)C")
"inactive"
>>> label_value("C[Si](C)(C)Cl")
"inactive"
>>> label_value("O=C(c1ccccc1)c1cc(Cl)ccc1O")
"active"
>>> label_value("O=C(NO)c1ccccc1")
"active"
>>> label_value("O=C1OC(=O)c2cccc3cccc1c23")
"inactive"
>>> label_value("CN(C)CCCN1c2ccccc2Sc2ccc(C(F)(F)F)cc21")
"active"
>>> label_value("CCCCCCCCCCOCC(O)CN (stereo unspecified)")
"active"
